# Condition Notes: mouse, in vivo, ip, 1 mg, AUC
Where a SMILES comes first, the peptide text is derived from it.
Quantity Name: AUC (ng·h/mL)

>  <Compound>
CC(C)C[C@@H](NC(=O)[C@H](CO)NC(=O)[C@H](CS)NC(=O)[C@@H](N)CO)C(=O)N1CCC[C@H]1C(=O)N[C@@H](CCC(N)=O)C(=O)N[C@H](C(N)=O)[C@@H](C)O [mouse [D-Leu-4]OB3] (HELM PEPTIDE1{S.C.S.[dL].P.Q.T.[am]}$$$$V2.0; N-terminus assumed)

>  <Quantity Name>
AUC

>  <Reading>
17900

$$$$

----------
# Condition Notes: mouse, in vivo, inhaled or intranasal, t1/2 1 + t1/2 2 (overall half-life)
Where a SMILES comes first, the peptide text is derived from it.

>  <Compound>
CC(C)C[C@@H](NC(=O)[C@H](CO)NC(=O)[C@H](CS)NC(=O)[C@@H](N)CO)C(=O)N1CCC[C@H]1C(=O)N[C@@H](CCC(N)=O)C(=O)N[C@H](C(N)=O)[C@@H](C)O [mouse [D-Leu-4]OB3] (HELM PEPTIDE1{S.C.S.[dL].P.Q.T.[am]}$$$$V2.0; N-terminus assumed)

>  <half-life (min)>
41.1

$$$$

----------
# Condition Notes: mouse, in vivo, ip, 1 mg
Where a SMILES comes first, the peptide text is derived from it.
Quantity Name: Tmax (min)

>  <Compound>
CC(C)C[C@@H](NC(=O)[C@H](CO)NC(=O)[C@H](CS)NC(=O)[C@@H](N)CO)C(=O)N1CCC[C@H]1C(=O)N[C@@H](CCC(N)=O)C(=O)N[C@H](C(N)=O)[C@@H](C)O [mouse [D-Leu-4]OB3] (HELM PEPTIDE1{S.C.S.[dL].P.Q.T.[am]}$$$$V2.0; N-terminus assumed)

>  <Quantity Name>
Tmax

>  <Reading>
5

$$$$

----------
# Condition Notes: mouse, in vivo, im, 1 mg
Where a SMILES comes first, the peptide text is derived from it.

>  <Compound>
CC(C)C[C@@H](NC(=O)[C@H](CO)NC(=O)[C@H](CS)NC(=O)[C@@H](N)CO)C(=O)N1CCC[C@H]1C(=O)N[C@@H](CCC(N)=O)C(=O)N[C@H](C(N)=O)[C@@H](C)O [mouse [D-Leu-4]OB3] (HELM PEPTIDE1{S.C.S.[dL].P.Q.T.[am]}$$$$V2.0; N-terminus assumed)

>  <Cmax>
46600 ng/mL

$$$$

----------
# Condition Notes: mouse, in vivo, sc, 1 mg
Where a SMILES comes first, the peptide text is derived from it.

>  <Compound>
CC(C)C[C@@H](NC(=O)[C@H](CO)NC(=O)[C@H](CS)NC(=O)[C@@H](N)CO)C(=O)N1CCC[C@H]1C(=O)N[C@@H](CCC(N)=O)C(=O)N[C@H](C(N)=O)[C@@H](C)O [mouse [D-Leu-4]OB3] (HELM PEPTIDE1{S.C.S.[dL].P.Q.T.[am]}$$$$V2.0; N-terminus assumed)

>  <Tmax>
5 min

$$$$

----------
# Condition Notes: mouse, in vivo, sc, 1 mg, AUC
Where a SMILES comes first, the peptide text is derived from it.

>  <Compound>
CC(C)C[C@@H](NC(=O)[C@H](CO)NC(=O)[C@H](CS)NC(=O)[C@@H](N)CO)C(=O)N1CCC[C@H]1C(=O)N[C@@H](CCC(N)=O)C(=O)N[C@H](C(N)=O)[C@@H](C)O [mouse [D-Leu-4]OB3] (HELM PEPTIDE1{S.C.S.[dL].P.Q.T.[am]}$$$$V2.0; N-terminus assumed)

>  <AUC / µg·h/mL>
19.7

$$$$

----------
# Condition Notes: mouse, in vivo, im, 1 mg
Where a SMILES comes first, the peptide text is derived from it.

>  <Molecule>
CC(C)C[C@@H](NC(=O)[C@H](CO)NC(=O)[C@H](CS)NC(=O)[C@@H](N)CO)C(=O)N1CCC[C@H]1C(=O)N[C@@H](CCC(N)=O)C(=O)N[C@H](C(N)=O)[C@@H](C)O [mouse [D-Leu-4]OB3] (HELM PEPTIDE1{S.C.S.[dL].P.Q.T.[am]}$$$$V2.0; N-terminus assumed)

>  <Tmax (min)>
5

$$$$

----------
# Condition Notes: mouse, in vivo, sc, 1 mg
Where a SMILES comes first, the peptide text is derived from it.

>  <Molecule>
CC(C)C[C@@H](NC(=O)[C@H](CO)NC(=O)[C@H](CS)NC(=O)[C@@H](N)CO)C(=O)N1CCC[C@H]1C(=O)N[C@@H](CCC(N)=O)C(=O)N[C@H](C(N)=O)[C@@H](C)O [mouse [D-Leu-4]OB3] (HELM PEPTIDE1{S.C.S.[dL].P.Q.T.[am]}$$$$V2.0; N-terminus assumed)

>  <Cmax [ng/mL]>
35100

$$$$

----------
# Condition Notes: mouse, in vivo
Where a SMILES comes first, the peptide text is derived from it.

>  <Compound>
CC(C)C[C@@H](NC(=O)[C@H](CO)NC(=O)[C@H](CS)NC(=O)[C@@H](N)CO)C(=O)N1CCC[C@H]1C(=O)N[C@@H](CCC(N)=O)C(=O)N[C@H](C(N)=O)[C@@H](C)O [mouse [D-Leu-4]OB3] (HELM PEPTIDE1{S.C.S.[dL].P.Q.T.[am]}$$$$V2.0; N-terminus assumed)

>  <Unit Symbol>
min⁻¹

>  <kelim2>
0.0203

$$$$

----------
# Condition Notes: mouse, in vivo, inhaled or intranasal, t1/2 2
Where a SMILES comes first, the peptide text is derived from it.
Quantity Name: half-life (min)

>  <Compound>
CC(C)C[C@@H](NC(=O)[C@H](CO)NC(=O)[C@H](CS)NC(=O)[C@@H](N)CO)C(=O)N1CCC[C@H]1C(=O)N[C@@H](CCC(N)=O)C(=O)N[C@H](C(N)=O)[C@@H](C)O [mouse [D-Leu-4]OB3] (HELM PEPTIDE1{S.C.S.[dL].P.Q.T.[am]}$$$$V2.0; N-terminus assumed)

>  <Reading>
34.1

$$$$

----------
# Condition Notes: mouse, in vivo, sc, 1 mg
Where a SMILES comes first, the peptide text is derived from it.

>  <Molecule>
CC(C)C[C@@H](NC(=O)[C@H](CO)NC(=O)[C@H](CS)NC(=O)[C@@H](N)CO)C(=O)N1CCC[C@H]1C(=O)N[C@@H](CCC(N)=O)C(=O)N[C@H](C(N)=O)[C@@H](C)O [mouse [D-Leu-4]OB3] (HELM PEPTIDE1{S.C.S.[dL].P.Q.T.[am]}$$$$V2.0; N-terminus assumed)

>  <Unit Symbol>
ng·h/mL

>  <AUC>
19700

$$$$

----------
# Condition Notes: mouse, in vivo, sc, 1 mg, t1/2 (serum half-life)
Where a SMILES comes first, the peptide text is derived from it.

>  <Molecule>
CC(C)C[C@@H](NC(=O)[C@H](CO)NC(=O)[C@H](CS)NC(=O)[C@@H](N)CO)C(=O)N1CCC[C@H]1C(=O)N[C@@H](CCC(N)=O)C(=O)N[C@H](C(N)=O)[C@@H](C)O [mouse [D-Leu-4]OB3] (HELM PEPTIDE1{S.C.S.[dL].P.Q.T.[am]}$$$$V2.0; N-terminus assumed)

>  <half-life (min)>
35

$$$$

----------
# Condition Notes: mouse, in vivo, ip, 1 mg, t1/2 (serum half-life)
Where a SMILES comes first, the peptide text is derived from it.

>  <Molecule>
CC(C)C[C@@H](NC(=O)[C@H](CO)NC(=O)[C@H](CS)NC(=O)[C@@H](N)CO)C(=O)N1CCC[C@H]1C(=O)N[C@@H](CCC(N)=O)C(=O)N[C@H](C(N)=O)[C@@H](C)O [mouse [D-Leu-4]OB3] (HELM PEPTIDE1{S.C.S.[dL].P.Q.T.[am]}$$$$V2.0; N-terminus assumed)

>  <half-life>
30 min

$$$$

----------
# Condition Notes: mouse, in vivo, po, 1 mg
Where a SMILES comes first, the peptide text is derived from it.
Quantity Name: AUC

>  <Molecule>
CC(C)C[C@@H](NC(=O)[C@H](CO)NC(=O)[C@H](CS)NC(=O)[C@@H](N)CO)C(=O)N1CCC[C@H]1C(=O)N[C@@H](CCC(N)=O)C(=O)N[C@H](C(N)=O)[C@@H](C)O [mouse [D-Leu-4]OB3] (HELM PEPTIDE1{S.C.S.[dL].P.Q.T.[am]}$$$$V2.0; N-terminus assumed)

>  <Reading>
9320 ng·h/mL

$$$$

----------
# Condition Notes: mouse, in vivo, inhaled or intranasal, 1 mg, AUC2
Where a SMILES comes first, the peptide text is derived from it.

>  <Compound>
CC(C)C[C@@H](NC(=O)[C@H](CO)NC(=O)[C@H](CS)NC(=O)[C@@H](N)CO)C(=O)N1CCC[C@H]1C(=O)N[C@@H](CCC(N)=O)C(=O)N[C@H](C(N)=O)[C@@H](C)O [mouse [D-Leu-4]OB3] (HELM PEPTIDE1{S.C.S.[dL].P.Q.T.[am]}$$$$V2.0; N-terminus assumed)

>  <Unit Symbol>
ng·h/mL

>  <AUC>
56900

$$$$
